B1: r16_88_TrROS_Hall (parent)
chain: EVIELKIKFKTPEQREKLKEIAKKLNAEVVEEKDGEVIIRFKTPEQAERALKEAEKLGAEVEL

Variants of: B1
Assay: folding stability dG (cDNA display proteolysis); higher = more stable
Details: PBS, room temperature
// reported folding stability dG for each item listed
Measure name: folding stability dG

variant=E32Q measure_name="folding stability dG" reported_value="4.62 kcal/mol"
variant=E55F measure_name="folding stability dG" reported_value="4.59 kcal/mol"
variant=E45K measure_name="folding stability dG" reported_value="4.42 kcal/mol"
